Below: a set of entries, each annotated with reported viability at 28.5 h, 10 µM.
EXPERIMENT_SUMMARY: in vitro
DETAILS: human, hela cells, % viability
The figure you give is taken to be in %; do not add the unit.

molecule=Cc1cc(CN(C)C(=O)c2cccc(NC(=O)C3CCCCC3)c2)no1 measurement_unit=% value=92.6
molecule=COc1ccc2nc(-n3nc(C(=O)NCc4ccncc4)c4ccccc43)sc2c1 measurement_unit=% value=94.9
molecule=COc1ccccc1CN(CCCn1ccnc1)Cc1ccco1 measurement_unit=% value=111

Query string: Data request, read-out viability at 28.5 h, 10 µM, for COc1ccc(-c2ccc(CNCCCN3CCOCC3)o2)cc1Cl [CBK278312C]
Result string: 103

Query string: Consider the molecule shown here: `Cc1ccc(N2C(=O)N[C@@H]3CCN(S(=O)(=O)c4ccccc4)[C@@H]3C2=O)cc1` What is its recorded viability at 28.5 h, 10 µM?
Result string: 107

----------
EXPERIMENT_SUMMARY: in vitro
DETAILS: human, hela cells, % viability
RESULT_TYPE: viability at 28.5 h, 10 µM (%)
Just the number please, in %, no unit attached.

The examples below pair each entry with its known result.
molecule="COc1ccc(CSCC(N)C(=O)O)cc1Br (stereo not shown) [CBK264026]" result_type="viability at 28.5 h, 10 µM" value=94
molecule="CC(C)(C)c1cc(C(=O)Nc2ccncc2)n(Cc2ccc(Cl)cc2Cl)n1 [CBK107284]" result_type="viability at 28.5 h, 10 µM" value=107
molecule="CSCCOc1cc(N2CCCC2)ncn1 [CBK115900]" result_type="viability at 28.5 h, 10 µM" value=90
molecule="Cn1cncc1C(=O)NC1Cc2ccccc2C1 [CBK200362]" result_type="viability at 28.5 h, 10 µM" value=107
molecule="CC(C)(C)C(=O)N1CC[C@H]2NC(=O)N(c3ccc(F)cc3)C(=O)[C@H]21 [CBK289328]" result_type="viability at 28.5 h, 10 µM" value=86.4
molecule="Cc1cc(CN(C)c2nccc(N3CCN[C@H]4CS(=O)(=O)C[C@H]43)n2)no1 [CBK306580]" result_type="viability at 28.5 h, 10 µM" value=109

Query string: Find the recorded viability at 28.5 h, 10 µM belonging to COCC1(C)NC(=O)N(Cc2nn(-c3ccccc3)c3c2CCC3)C1=O (stereo not shown) [CBK306483] and report it.
Result string: 88.8

Query string: Bench note: what viability at 28.5 h, 10 µM did CC1CCCN(C(=S)NC2CC3CCC2C3)C1 (stereo not shown) [CBK085999] show?
Result string: 92.7

Query string: Given the molecule COc1ccc(C(N2CCOCC2)N2CCOCC2)cc1 [CBK261002] , what is its reported viability at 28.5 h, 10 µM?
Result string: 102

Query string: Recorded viability at 28.5 h, 10 µM for Cc1cc(O)n2nc(CC(=O)NCc3nnc4n3CCCCC4)nc2n1 [CBK306989] , please?
Result string: 103

----------
EXPERIMENT_SUMMARY: in vitro
DETAILS: human, hela cells, % viability
Mark fulfilled only when viability at 28.5 h, 10 µM stays strictly below 90%. Values equal to the cut-off are not fulfilled.

Solved entries:
compound=O=C(CN1CCC(c2ccccc2F)CC1)N1CCCCC1 classification="not fulfilled"
compound=Cc1ccc2nc(-c3ccccn3)cc(C(=O)NCc3ccccn3)c2c1 classification=fulfilled
compound=COc1ccc(Nc2nnc(-c3ccc(C(N)=O)cc3)c3ccccc23)cc1 classification="not fulfilled"
compound="CN(CC1(C)COC1)C(=O)C(c1ccc(F)cc1)N(C)C (stereo not drawn)" classification="not fulfilled"
compound=C[C@H](NC(=O)N1CCN(C(=O)CCc2c[nH]c3ccccc23)CC1)C(=O)O classification="not fulfilled"
compound="O=C(c1ccc(N2CCCC2)cc1)N1CCc2sccc2C1c1ccco1 (stereo not drawn)" classification="not fulfilled"

Query string: In plain terms, does `CCOc1cc(S(=O)(=O)NCc2ccncc2)ccc1Br` come in under 90% for viability at 28.5 h, 10 µM?
Result string: fulfilled

Query string: I wonder whether `CC(=O)C(Sc1ccc2nnc(-c3ccc(C)cc3)n2n1)C(C)=O` has viability at 28.5 h, 10 µM below 90%. Can you tell?
Result string: not fulfilled

----------
EXPERIMENT_SUMMARY: in vitro
DETAILS: human, hela cells, % viability
RESULT_TYPE: viability at 28.5 h, 10 µM (%)
Express it in %; write the number only.

Some solved entries appear below for comparison.
compound="CCOc1ccc(Nc2nc(-c3ccc(C)cc3C)c(CC(=O)O)s2)cc1 [CBK264187]" value=62.5
compound="O=C1Nc2ccccc2C(O)(C(=O)NCc2ccccc2)N1c1ccccc1 (stereo not shown) [CBK288555]" value=91.1
compound="Cc1cccn2c(=O)c(/C=C3\\SC(=S)NC3=O)c(NCCCN3CCOCC3)nc12 [CBK264904]" value=104
compound="COC(=O)c1sccc1NC(=O)COc1ccc([N+](=O)[O-])cc1Cl [CBK066828]" value=109
compound="COc1ccc(C(=O)N2CCC3(CCCN(C(=O)c4ccco4)C3)C2)cc1OC (stereo not shown) [CBK131647]" value=98.2

Alright, here's another compound for you.
Query string: Dear colleague, I am looking for the recorded viability at 28.5 h, 10 µM of the following compound: CC(=O)N1CCN(C(C(=O)O)c2cn(Cc3ccccc3)c3ccc(C(=O)O)cc23)CC1 (stereo not shown) [CBK286648]
Result string: 79.6

----------
Known IC50 of a selection of compounds
System: B. thetaiotaomicron
Construct: DSM 2079
EXPERIMENT_SUMMARY: microbe, parasite or virus in culture
Set-up: Microbial growth in liquid dilution assay, OD600 relative to DMSO control
DETAILS: Bacteroides thetaiotaomicron; estimated IC50; read-out: B. thetaiotaomicron, IC50 (µM) estimate

See these solved cases before continuing.
compound="Cc1ccc(C(=O)/C=C/Nc2ccc(S(=O)(=O)Nc3onc(C)c3C)cc2)cc1 [c4v]" value="> 30 µM"
compound="O=C1Oc2nc3ccccc3cc2CN1C1CC1 [c1e]" value="> 30 µM"

// moving on: another record for IC50
Query string: If you can, please state the reported IC50 value of COc1c(Br)cc2c(cc(C)n2-c2ccccc2)c1OCC(O)CNC(C)C (stereo not drawn) [c5e] .
Result string: > 30 µM

----------
Entries and their measured viability at 28.5 h, 10 µM follow.
EXPERIMENT_SUMMARY: in vitro
DETAILS: human, hela cells, % viability
Numbers only; they are read as %.

molecule=Cc1cc2nc3s/c(=C\c4ccc(-c5ccc(O)c(C(=O)O)c5)o4)c(=O)n3c2cc1C result_type="viability at 28.5 h, 10 µM" value=100
molecule=CC(C)c1ccc(N2C(=O)N[C@@H]3CCN(S(=O)(=O)c4ccccc4)[C@@H]3C2=O)cc1 result_type="viability at 28.5 h, 10 µM" value=114
molecule=Cc1c(Cl)cccc1S(=O)(=O)Nc1ccsc1C(=O)O result_type="viability at 28.5 h, 10 µM" value=97.7
molecule=CCOc1ccc(S(=O)(=O)NCc2ccncc2)cc1NC(C)=O result_type="viability at 28.5 h, 10 µM" value=88

Query string: Need viability at 28.5 h, 10 µM, item O=S(=O)(c1ccc(Br)cc1F)N1CCCCC1CO (stereo not drawn)
Result string: 92.9

Query string: viability at 28.5 h, 10 µM lookup needed for O=C(Cc1ccccc1)NC(Cc1ccc(Cl)cc1)C(=O)O (stereo not drawn) , thanks.
Result string: 92.7

----------
EXPERIMENT_SUMMARY: in vitro
DETAILS: human, hela cells, % viability
Measured viability at 28.5 h, 10 µM, listed per entry.
Write down the numeric answer in % and omit the unit.

molecule="O=C1Nc2ccccc2C12CC(c1ccccc1Cl)=NN2 (centres unmarked) [CBK288004]" result_type="viability at 28.5 h, 10 µM" value=111
molecule="CC(Cc1cccs1)C(=O)N1CCn2cnnc2C1 (centres unmarked) [CBK282109]" result_type="viability at 28.5 h, 10 µM" value=96
molecule="COCCNC(=O)c1cc2n(n1)C(C(F)(F)F)CC(c1ccccc1)N2 (centres unmarked) [CBK307610]" result_type="viability at 28.5 h, 10 µM" value=114

Query string: Fill in: viability at 28.5 h, 10 µM of O=C(NC1CCN(Cc2ccccc2)CC1)c1cnc(-c2ccc(Cl)cc2)c(-c2cccnc2)c1 [CBK037602] is ___
Result string: 92.2

Query string: Form field: reported viability at 28.5 h, 10 µM of O=C(NCc1cccnc1)c1ncoc1-c1cccc(Cl)c1 [CBK282403]
Result string: 85.4

Query string: Can you look up the measured viability at 28.5 h, 10 µM of C=CCN1CCC(C(=O)NC(C)c2ccc(OC)c(OC)c2)CC1 (centres unmarked) [CBK148924] for me?
Result string: 91.1

Query string: Using the record for COc1ccc(C(=O)NC(c2ccccc2Cl)c2cc(Cl)c3cccnc3c2O)cc1 (centres unmarked) [CBK264036] , report its viability at 28.5 h, 10 µM.
Result string: 88

Query string: State the recorded viability at 28.5 h, 10 µM for this entry: N#Cc1ccccc1-c1ccc(CSc2cccs2)cc1 [CBK002638]
Result string: 90.5

Query string: Please give the measured viability at 28.5 h, 10 µM for this molecule: Cn1cc(CN2CCCN(C(=O)c3ccc4ccccc4n3)CC2)cn1 [CBK305369]
Result string: 102

Query string: Entry Cc1nnc(CSc2ncc(-c3ccc(Cl)cc3)n2Cc2ccccc2)o1 [CBK297154] has what viability at 28.5 h, 10 µM?
Result string: 103

Data provenance is paper PMC12040169.
